Data origin, for the record: patent US11357856B2

- assay-info: Determination of pKa of formulated lipids (TNS fluorescence assay in lipid nanoparticles)
- Format: physicochemical
- condition-description: cationic lipid formulated in lipid nanoparticles (cationic lipid/DSPC/cholesterol/PEG-lipid 50/10/38.5/1.5 mol %); pH of half-maximal TNS fluorescence
endpoint: pKa

> print(dat)
                                   compound  reported
1  CCCCCCCCC(CCCCCC)CN(CCCCN(C)C)CC(CCCCCC)CCCCCCCC (centres unmarked)      5.55
2  CCCCCCCCC(CCCCCC)CN(CCCCCN(CCO)CCO)CC(CCCCCC)CCCCCCCC (centres unmarked)      5.87
3  CCCCCCCCC(CCCCCC)CN(CCCCCN(C)C)CC(CCCCCC)CCCCCCCC (centres unmarked)      5.77
4  CCCCCCCCC(CCCCCC)CN(CCCCCCN(C)C)CC(CCCCCC)CCCCCCCC (centres unmarked)      5.91
5  CCCCCCCCC(CCCCCC)CN(CCCNC)CC(CCCCCC)CCCCCCCC (centres unmarked)      6.49
